# Test system: RXF 393 renal
# run-description: NCI-60 one-dose screen, 48 h
# measurement-setup: 10 µM unless noted
Compounds without any hit were thinned out: in the full panel of roughly 83,000, 20% have a hit. The source made the active and inactive calls. Rule for the calls: active = growth percent below 10; inactive = the rest.
Valid outcomes are listed here; reply with one: yes (1) (active), no (0) (inactive)

// below: answered compounds
- compound: "CC(=O)O[C@H](C[C@H](C(C)C)N(C)C(=O)[C@@H](NC(=O)[C@H]1CCCCN1C)C(C)C)c1cccc(C(=O)N[C@@H](Cc2ccccc2)C[C@H](C)C(=O)O)n1"
  class-assignment: "no (0)"
- compound: "CCC(CC)CC1(C)CC2(C)CCOC2OO1 (centres undefined)"
  class-assignment: "no (0)"
- compound: "CCCc1cc(O)c2c3c(c(=O)oc2c1)CN(C)CC3"
  class-assignment: "no (0)"
- compound: "CCCCCCCCCCCCCCCCCCOc1ccccc1COP(=O)(O)OOCC[N+](C)(C)C"
  class-assignment: "yes (1)"
- compound: "COc1ccc(S(=O)(=O)Nc2c(/C=C\\c3cc(OC)c(OC)c(OC)c3)ccc(OC)c2O)cc1OC"
  class-assignment: "no (0)"
- compound: "C=C1C[C@](OC)([C@H](O)C(=O)N[C@@H](OC)[C@@H]2C[C@@H](O)C(C)(C)[C@@H](C[C@@H](COC)OC)O2)O[C@H](C)[C@@H]1C"
  class-assignment: "yes (1)"
- compound: "CC[CH2][Sn]([Cl])([Cl])[CH2]CC"
  class-assignment: "no (0)"
- compound: "COc1cc2c(cc1OCCCCCn1c(-c3ccco3)nc3ccccc31)N=C[C@@H]1CCCN1C2=O"
  class-assignment: "yes (1)"

Then this compound:
Task: Assay result, entry N#CC1C(C#N)C2CCC1C1C2N1c1ccccc1 (centres undefined) — outcome?
Result: no (0)

###

# System: SN12C renal
# run-description: NCI-60 one-dose screen, 48 h (100 = growth as untreated, 0 = no growth, -100 = all killed)
# measurement-setup: 10 µM unless noted
The panel holds about 83,000 compounds, 20% with a hit somewhere; the sample as a whole holds those more often. The source made the active and inactive calls. Rule for the calls: active = growth percent below 10; inactive = the rest.
# growth per record follows

Field: example entries. Status: answers known.
- compound: "COC(=O)[C@@H](C)C[C@H](Cc1ccccc1)NC(=O)c1csc([C@@H](C[C@H](C(C)C)N(C)C(=O)[C@H](C)NC(=O)[C@H]2CCCN2C)OC(C)=O)n1"
  growth: "64.8% (inactive)"
- compound: "COC(=O)C1OC(Oc2ccc(N(CCCl)CCCl)cc2)C(OC(C)=O)C(OC(C)=O)C1OC(C)=O (stereo not drawn)"
  growth: "62.4% (inactive)"
- compound: "CC12CCC(O)CC1=CCC1C2CCC2(C)C(O)CCC12 (stereo not drawn)"
  growth: "105% (inactive)"
- compound: "Cc1cc(N(CCCl)CCCl)ccc1C=Nc1cccnc1"
  growth: "57.2% (inactive)"
- compound: "COc1ccc(S(=O)(=O)Nc2c(/C=C\\c3cc(OC)c(OC)c(OC)c3)ccc(OC)c2O)cc1OC"
  growth: "31% (inactive)"

Task: Requested read-out: growth. Entry: CC(C)=CCC/C(C)=C/C=N\N=C(/N)N[N+](=O)[O-]
Result: 100% (inactive)

Task: Quick one: growth of C/C(=C\c1cc(C(F)(F)F)nn1CCNC(=O)OC(C)(C)C)[C@@H]1C[C@@H]2O[C@]2(C)CCC[C@H](C)[C@H](O)[C@@H](C)C(=O)C(C)(C)[C@@H](O)CC(=O)O1 ?
Result: 87% (inactive)

Task: Data request, read-out growth, for CC1=C([Te]c2ccc(O)cc2)C(=O)c2ccccc2C1=O
Result: 11.5% (inactive)
